test system: Parabacteroides merdae; experiment: growth AUC relative to DMSO control (median of replicates) (fraction); higher = more growth (less inhibition), active = hit call of the paper; settings: 20 µM; 24 h
Recorded Endpoint: growth AUC

>  <Compound>
CC1(C)C(=O)Oc2ccc(OS(C)(=O)=O)cc21

>  <Test Target>
Parabacteroides merdae

>  <Number>
0.979

$$$$
>  <Compound>
Cc1cccc(C)c1N(CCSCC(O)C(=O)[O-])C(=O)CO.[Na+] (centres undefined)

>  <Test Target>
Parabacteroides merdae

>  <Number>
0.99

$$$$
>  <Compound>
c1ccc2cc3ccccc3cc2c1

>  <Test Target>
Parabacteroides merdae

>  <Number>
0.958

$$$$
>  <Compound>
Oc1cccc2ccccc12

>  <Test Target>
Parabacteroides merdae

>  <Number>
0.997

$$$$
>  <Compound>
CS(=O)(=O)c1ccc(C(=O)O)c(N)c1

>  <Test Target>
Parabacteroides merdae

>  <Number>
1.01

$$$$
>  <Compound>
C=CCc1ccc(O)c(OC)c1

>  <Test Target>
Parabacteroides merdae

>  <Number>
0.996

$$$$
>  <Compound>
O=S(Cc1ccc(Cl)cc1)c1ccc(Cl)cc1 (centres undefined)

>  <Test Target>
Parabacteroides merdae

>  <Number>
1

$$$$
>  <Compound>
COC(=O)C(Cl)Cc1ccc(Cl)cc1 (centres undefined)

>  <Test Target>
Parabacteroides merdae

>  <Number>
0.901

$$$$
>  <Compound>
CCc1ccc(O)cc1

>  <Test Target>
Parabacteroides merdae

>  <Number>
0.968

$$$$
>  <Compound>
CCOC(=O)Nc1cccc(OC(=O)Nc2cccc(C)c2)c1

>  <Test Target>
Parabacteroides merdae

>  <Number>
0.932

$$$$
>  <Compound>
O=S(=O)(Cc1ccc(Cl)cc1)c1ccc(Cl)cc1

>  <Test Target>
Parabacteroides merdae

>  <Number>
0.98

$$$$
>  <Compound>
COC(=O)c1c(Cl)ccc(Cl)c1OC

>  <Test Target>
Parabacteroides merdae

>  <Number>
1.01

$$$$
>  <Compound>
CC(C)N(C(=O)C(=O)O)c1ccc(F)cc1

>  <Test Target>
Parabacteroides merdae

>  <Number>
1.01

$$$$
>  <Compound>
CCOc1nc(F)cc2nc(S(=O)(=O)Nc3c(Cl)cccc3C(=O)OC)nn12

>  <Test Target>
Parabacteroides merdae

>  <Number>
1.02

$$$$
>  <Compound>
COCCN(C(=O)CO)c1c(C)cccc1C(=O)O

>  <Test Target>
Parabacteroides merdae

>  <Number>
0.986

$$$$
>  <Compound>
COC(=O)c1ccc(C(F)(F)F)nc1S(=O)(=O)[N-]C(=O)Nc1nc(OC)cc(OC)n1.[Na+]

>  <Test Target>
Parabacteroides merdae

>  <Number>
0.974

$$$$
>  <Compound>
CN(C)C(=O)Nc1ccc(Cl)c(Cl)c1

>  <Test Target>
Parabacteroides merdae

>  <Number>
0.907

$$$$
>  <Compound>
S=C([S-])NCCNC(=S)[S-].[Zn+2]

>  <Test Target>
Parabacteroides merdae

>  <Number>
0.974

$$$$
>  <Compound>
COC(=O)Cc1cccc2ccccc12

>  <Test Target>
Parabacteroides merdae

>  <Number>
0.995

$$$$
>  <Compound>
CC(C)Nc1nc(N)nc(Cl)n1

>  <Test Target>
Parabacteroides merdae

>  <Number>
1.04

$$$$
>  <Compound>
c1ccc(Nc2ccccc2)cc1

>  <Test Target>
Parabacteroides merdae

>  <Number>
0.983

$$$$
>  <Compound>
CN(C)C(=O)Nc1ccc(Oc2ccc(Cl)cc2)cc1

>  <Test Target>
Parabacteroides merdae

>  <Number>
0.918

$$$$
>  <Compound>
CNC(=O)Nc1nc2ccccc2s1

>  <Test Target>
Parabacteroides merdae

>  <Number>
1.03

$$$$
>  <Compound>
CC(C)c1ccccc1

>  <Test Target>
Parabacteroides merdae

>  <Number>
1.02

$$$$
>  <Compound>
CCc1cccc(C)c1N(C(=O)C(=O)O)C(C)COC (centres undefined)

>  <Test Target>
Parabacteroides merdae

>  <Number>
1.01

$$$$
>  <Compound>
CCC/C(=N\OCC)C1=C(O)CC(C2CCCSC2)CC1=O (centres undefined)

>  <Test Target>
Parabacteroides merdae

>  <Number>
1.04

$$$$
>  <Compound>
CN(C)C(=O)Nc1ccccc1

>  <Test Target>
Parabacteroides merdae

>  <Number>
1.02

$$$$
>  <Compound>
CCCC(C)(C)C(=O)Nc1ccc(Cl)cc1

>  <Test Target>
Parabacteroides merdae

>  <Number>
0.949

$$$$
>  <Compound>
Br[C@@H]1CC[C@@H](Br)[C@@H](Br)CC[C@@H](Br)[C@@H](Br)CC[C@H]1Br

>  <Test Target>
Parabacteroides merdae

>  <Number>
0.931

$$$$
>  <Compound>
CCCCCCCCOC(=O)COc1cc(Cl)c(Cl)cc1Cl

>  <Test Target>
Parabacteroides merdae

>  <Number>
1.01

$$$$
>  <Compound>
CCOC(=O)c1ccc(O)cc1

>  <Test Target>
Parabacteroides merdae

>  <Number>
0.976

$$$$
>  <Compound>
CCN(CC)c1nc(C)cc(=O)[nH]1

>  <Test Target>
Parabacteroides merdae

>  <Number>
1

$$$$
>  <Compound>
N[C@@H](Cc1cc(I)c(Oc2cc(I)c(O)c(I)c2)c(I)c1)C(=O)O

>  <Test Target>
Parabacteroides merdae

>  <Number>
0.949

$$$$
>  <Compound>
CC(C)(c1ccc(O)cc1)c1ccc(O)cc1

>  <Test Target>
Parabacteroides merdae

>  <Number>
1.07

$$$$
>  <Compound>
CCCCOCCOC(=O)COc1ccc(Cl)cc1Cl

>  <Test Target>
Parabacteroides merdae

>  <Number>
0.954

$$$$
>  <Compound>
COC(=O)c1cccc(C)c1S(=O)(=O)NC(=O)Nc1nc(OCC(F)(F)F)nc(N(C)C)n1

>  <Test Target>
Parabacteroides merdae

>  <Number>
0.99

$$$$
>  <Compound>
O=C(NC(=O)c1c(F)cccc1F)Nc1cc(C(F)(F)F)cc(C(F)(F)F)c1Cl

>  <Test Target>
Parabacteroides merdae

>  <Number>
0.951

$$$$
>  <Compound>
COc1nc(OC)nc(C(=O)c2cccc(F)c2N(C)S(=O)(=O)C(F)F)n1

>  <Test Target>
Parabacteroides merdae

>  <Number>
0.927

$$$$
>  <Compound>
Cc1c(C(=O)c2c[nH]n(C)c2=O)ccc(S(C)(=O)=O)c1C1=NOCC1

>  <Test Target>
Parabacteroides merdae

>  <Number>
1

$$$$
>  <Compound>
NC1=C(Cl)C(=O)c2ccccc2C1=O

>  <Test Target>
Parabacteroides merdae

>  <Number>
0.88

$$$$
>  <Compound>
NC(Cn1cncn1)C(=O)O (centres undefined)

>  <Test Target>
Parabacteroides merdae

>  <Number>
1.01

$$$$
>  <Compound>
O=[N+](Nc1ccccc1)c1ccccc1

>  <Test Target>
Parabacteroides merdae

>  <Number>
0.986

$$$$
>  <Compound>
CCCCOC(=O)C(C)Oc1ccc(Oc2ccc(C(F)(F)F)cn2)cc1 (centres undefined)

>  <Test Target>
Parabacteroides merdae

>  <Number>
0.961

$$$$
>  <Compound>
CCc1cccc(C)c1N(C(=O)CS(=O)(=O)[O-])C(C)COC.[Na+] (centres undefined)

>  <Test Target>
Parabacteroides merdae

>  <Number>
0.941

$$$$
>  <Compound>
CCSC(=O)N(CC)CC

>  <Test Target>
Parabacteroides merdae

>  <Number>
0.981

$$$$
>  <Compound>
C#CCN(C)c1c(C#N)cnn1-c1nn2c(c1Cl)CCCC2

>  <Test Target>
Parabacteroides merdae

>  <Number>
1.01

$$$$
>  <Compound>
Cc1cccc(C)c1N(C(=O)CCl)C1CCOC1=O (centres undefined)

>  <Test Target>
Parabacteroides merdae

>  <Number>
0.981

$$$$
>  <Compound>
CCOC(=O)/C(Cl)=C/c1cc(N2C(=O)C3=C(CCCC3)C2=O)ccc1Cl

>  <Test Target>
Parabacteroides merdae

>  <Number>
0.948

$$$$
>  <Compound>
Oc1ccc2nc(-c3cscn3)[nH]c2c1

>  <Test Target>
Parabacteroides merdae

>  <Number>
0.958

$$$$
